The values you see were collected from patent US7491827B2.

Molecular target: cloned human CCR8 receptor stably expressed in L1.2 cells (Homo sapiens)
Construct: expressed in transfected cells
Sequence (P51685 whole entry): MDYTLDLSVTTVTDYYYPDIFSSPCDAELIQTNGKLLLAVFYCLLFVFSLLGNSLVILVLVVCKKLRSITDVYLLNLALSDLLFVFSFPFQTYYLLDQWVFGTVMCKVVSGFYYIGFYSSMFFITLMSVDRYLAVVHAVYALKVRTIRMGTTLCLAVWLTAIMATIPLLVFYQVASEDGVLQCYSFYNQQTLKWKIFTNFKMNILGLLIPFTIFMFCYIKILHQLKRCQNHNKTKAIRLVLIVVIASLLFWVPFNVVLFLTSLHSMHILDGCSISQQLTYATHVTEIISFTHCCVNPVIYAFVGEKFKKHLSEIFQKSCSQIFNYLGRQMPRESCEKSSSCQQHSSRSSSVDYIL
Assay: whole cell binding screen: inhibition of biotinylated human I309 binding to CCR8 (FMAT 8100 HTS)
Settings: L1.2/hCCR8 cells, biotinylated human I-309, 10 point concentration response starting at 10 μM; read-out: Ki of compounds to inhibit I-309 binding to CCR8
Here, each record is paired with measured Ki data.

| compound | system-name | Ki |
| --- | --- | --- |
| Cc1ccccc1C(=O)Nc1ccc(S(=O)(=O)N[C@H]2CCN(C(=O)OC(C)C)C[C@@H]2C)c2ccccc12 (racemic) | cloned human CCR8 receptor stably expressed in L1.2 cells (Homo sapiens) | < 500 nM |

Exercise: Dear colleague, I am looking for the recorded Ki of the following compound: CC(=O)N1C[C@@H](C)[C@@H](NS(=O)(=O)c2ccc(NC(=O)c3ccccc3C)c3ccccc23)[C@@H](C)C1
Solution: < 1000 nM

Exercise: Dear colleague, I am looking for the recorded Ki of the following compound: Cc1ccccc1C(=O)Nc1ccc(S(=O)(=O)N[C@H]2CCN(C(=O)C3(N)CC3)C[C@H]2C)c2ccccc12
Solution: < 500 nM

Exercise: Dear colleague, I am looking for the recorded Ki of the following compound: CCOC(=O)N1CCC(NS(=O)(=O)c2ccc(NC(=O)c3ccccc3C)c3c2CCC3)CC1
Solution: < 500 nM

Exercise: Dear colleague, I am looking for the recorded Ki of the following compound: Cc1ccccc1C(=O)Nc1cccc2c(S(=O)(=O)Nc3ccc(Cl)cc3)cccc12
Solution: < 1000 nM

Exercise: Dear colleague, I am looking for the recorded Ki of the following compound: CCOC(=O)N1CCC(NS(=O)(=O)c2ccc(CNCc3ccco3)c3ccccc23)CC1
Solution: < 500 nM

Exercise: Dear colleague, I am looking for the recorded Ki of the following compound: CCCC(=O)N1CCC(NS(=O)(=O)c2ccc(NC(=O)C3CCCN(C)C3)c3ccccc23)CC1 (stereo not shown)
Solution: < 30000 nM
